TEST PROTOCOL: Solubility of the compound in simulated intestinal fluid
Format: physicochemical
PARAMETER: solubility (µg/mL)

- O=C(O)c1c(O)c(C2(c3ccc(Cl)cc3)CC2)nc2c(C(F)(F)F)cccc12: 3950

----------
TEST PROTOCOL: Half life in C57B6 mouse liver microsomes
Format: ADME, Microsome
PARAMETER: half-life (min)

- O=C(O)c1c(O)c(Cc2ccc(Cl)cc2)nc2c3c(ccc12)CCCC3: 14

----------
TEST PROTOCOL: Physiological stability of the compound at pH 4.5 assessed as compound remaining after 24 hrs in presence of 20% acetonitrile
Type: physicochemical
CONDITION DETAILS: read-out: Stability
PARAMETER: remaining at 24 h (%)

* O=C(O)c1c(O)c(C2(c3ccc(Cl)cc3)CC2)nc2c(C(F)(F)F)cccc12 | 102

----------
TEST PROTOCOL: Physiological stability of the compound at pH 9 assessed as compound remaining after 24 hrs in presence of 20% acetonitrile
Format: physicochemical
CONDITION DETAILS: read-out: Stability
PARAMETER: remaining at 24 h

• O=C(O)c1c(O)c(C2(c3ccc(Cl)cc3)CC2)nc2c(C(F)(F)F)cccc12 = 99.6%

----------
TEST PROTOCOL: Physiological stability of the compound at pH 4.5 assessed as compound remaining after 20 hrs in presence of 20% acetonitrile
Type: physicochemical
CONDITION DETAILS: read-out: Stability
PARAMETER: remaining at 20 h (%)

• O=C(O)c1c(O)c(C2(c3ccc(Cl)cc3)CC2)nc2c(C(F)(F)F)cccc12 = 100

----------
TEST PROTOCOL: Physiological stability of the compound at pH 7.4 assessed as compound remaining after 20 hrs in presence of 20% acetonitrile
Type: physicochemical
CONDITION DETAILS: read-out: Stability
PARAMETER: remaining at 20 h (%)

• O=C(O)c1c(O)c(C2(c3ccc(Cl)cc3)CC2)nc2c(C(F)(F)F)cccc12 = 102

----------
TEST PROTOCOL: Aqueous solubility of the compound at pH 1
Format: physicochemical
CONDITION DETAILS: aqueous solution
PARAMETER: solubility

- O=C(O)c1c(O)c(Cc2ccc(Cl)cc2)nc2c3c(ccc12)CCCC3 [PSI-697]: < 1 µg/mL

----------
TEST PROTOCOL: Physiological stability of the compound at pH 1 assessed as compound remaining after 8 hrs in presence of 20% acetonitrile
Type: physicochemical
CONDITION DETAILS: read-out: Stability
PARAMETER: remaining at 8 h (%)

- O=C(O)c1c(O)c(C2(c3ccc(Cl)cc3)CC2)nc2c(C(F)(F)F)cccc12: 102

----------
TEST PROTOCOL: Physiological stability of the compound at pH 9 assessed as compound remaining after 8 hrs in presence of 20% acetonitrile
Type: physicochemical
CONDITION DETAILS: read-out: Stability
PARAMETER: remaining at 8 h (%)

* O=C(O)c1c(O)c(C2(c3ccc(Cl)cc3)CC2)nc2c(C(F)(F)F)cccc12 | 98

----------
TEST PROTOCOL: Aqueous solubility of the compound at pH 7.4
Format: physicochemical
CONDITION DETAILS: aqueous solution, read-out: solubility
PARAMETER: solubility (µg/mL)

• O=C(O)c1c(O)c(C2(c3ccc(Cl)cc3)CC2)nc2c(C(F)(F)F)cccc12 = 165
